The measurements presented in this section are drawn from patent US6780853B1.

We begin with a simple list: items and their reported IMAX (maximum inhibition).
# Tested on: GABA receptor complex (GRC)
# protocolDescription: [35S]TBPS binding in rat cerebral cortex P2 homogenate
# appliedConditions: maximum inhibition of [35S]TBPS binding
Structures can show the parent of a compound that is named as a salt.
reportedProperty: IMAX (maximum inhibition) (%)

CC(=O)c1ccc(C#C[C@@]2(O)CC[C@@]3(C)[C@H](CC[C@@H]4[C@@H]3CC[C@]3(C)[C@@H](C(=O)CSc5ccncc5)CC[C@@H]43)C2)cc1 :: 94
C[n+]1cccc2cc(OCC(=O)C3CCC4C5CCC6CC(C)(O)CCC6(C)C5CCC34C)ccc21 (stereo not shown) :: 102
C#C[C@@]1(O)CC[C@@]2(C)[C@H](CC[C@@H]3[C@@H]2CC[C@]2(C)[C@@H](C(=O)CSCCCO)CC[C@@H]32)C1 :: 97
C#CC1(O)CCC2(C)C(CCC3C2CCC2(C)C(C(=O)CSCCCS(=O)(=O)O)CCC32)C1 (stereo not shown) [sodium salt] :: 97

----------
# Test system: GABA receptor complex (GRC)
# protocolDescription: [35S]TBPS binding in rat cerebral cortex P2 homogenate
# appliedConditions: maximum inhibition of [35S]TBPS binding
We begin with a simple list: items and their reported IMAX (maximum inhibition).
reportedProperty: IMAX (maximum inhibition) (%)

C[C@]12CC[C@@H](O)C[C@@H]1CC[C@@H]1[C@@H]2CC[C@]2(C)[C@@H](OCCO)CC[C@@H]12 :: 99
CC12CCC(O)CC1CCC1C2CCC2(C)C(C(=O)COc3ccc[n+]([O-])c3)CCC12 (stereo not shown) :: 62
CCCO[C@H]1C[C@@]2(C)[C@@H](CC[C@@H]3[C@@H]2CC[C@]2(C)[C@@H](C(=O)CSc4ccncc4)CC[C@@H]32)C[C@@H]1O :: 98
C#CCC1(O)CCC2(C)C(CCC3C2CCC2(C)C(OC)CCC32)C1 (stereo not shown) :: 101

----------
# protocolDescription: Rotorod test (general CNS depression potential)
# Set-up: species or system mice
# appliedConditions: mouse, in vivo, ip, 50% hydroxypropyl-β-cyclodextrin
reportedProperty: ED50 at 10 min (mg/kg)

CC(=O)[C@H]1CC[C@H]2[C@@H]3CC[C@H]4C[C@](C)(O)CC[C@]4(C)[C@H]3CC[C@]12C [5α-pregnan-3α-ol-3β-methyl-20-one, 3α-hydroxy-3β-methyl-5α-pregnan-20-one] :: 33.4

----------
# testedSystem: GABA receptor complex (GRC)
# protocolDescription: [35S]TBPS binding in rat cerebral cortex P2 homogenate
# appliedConditions: concentration to inhibit 50% of control [35S]TBPS binding; 2 nM [35S]TBPS
Structures can show the parent of a compound that is named as a salt.
reportedProperty: log10 of IC50 (log10 of the value in µM)

CCCO[C@H]1C[C@@]2(C)[C@@H](CC[C@@H]3[C@@H]2CC[C@]2(C)[C@@H](C(=O)CSc4ccncc4)CC[C@@H]32)C[C@@H]1O :: -1.85
C#C[C@@]1(O)CC[C@@]2(C)[C@H](CC[C@@H]3[C@@H]2CC[C@]2(C)[C@@H](C(=O)CS(=O)(=O)CCCO)CC[C@@H]32)C1 :: -0.71
C=C[C@@]1(O)CC[C@@]2(C)[C@@H](CC[C@@H]3[C@@H]2CC[C@]2(C)[C@@H](OC)CC[C@@H]32)C1 :: -0.88
COC1CCC2C3CCC4CC(O)(CCl)CCC4(C)C3CCC12C (stereo not drawn) :: -0.44
C[C@@]1(O)CC[C@@]2(C)[C@@H](CC[C@@H]3[C@@H]2CC[C@]2(C)[C@@H](C(=O)COc4ccc5ncccc5c4)CC[C@@H]32)C1 :: -1.12
COC1CCC2C3CCC4CC(O)(C#CCCOC(=O)CCC(=O)O)CCC4(C)C3CCC12C (stereo not drawn) [sodium salt] :: -0.97
C[C@]12CC[C@@H](O)C[C@H]1CC[C@@H]1[C@@H]2CC[C@]2(C)[C@@H](C(=O)COc3ccncc3)CC[C@@H]12 :: -1.35
C[C@]12CC[C@@H](O)C[C@H]1CC[C@@H]1[C@@H]2CC[C@]2(C)[C@@H](C(=O)CCc3ccncc3)CC[C@@H]12 :: -0.73
